I'd be grateful if you could share measured Tmax for these entries.
Test: Pharmacokinetics in ADHD model rats after gavage of JYPs
Format: in vivo, SHR rats (ADHD model)
Conditions: male, SHR, rat, plasma, 4.32 g/kg/day; ADHD model rats, oral JYPs high dose 4.320 g/kg/d (3rd of 3 values)
Just the number please, in min, no unit attached.

Ask: Which Tmax value is on record for `C[C@H]1O[C@@H](O[C@H]2CC[C@@]3(C)[C@@H](CC[C@]4(C)[C@@H]3C=C[C@]35OC[C@@]6(CCC(C)(C)C[C@H]63)[C@@H](O)C[C@]54C)[C@]2(C)CO)[C@H](O)[C@@H](O[C@@H]2O[C@H](CO)[C@@H](O)[C@H](O)[C@H]2O)[C@H]1O` ?
Reply: 34.8

Ask: Repeat for the following molecule: CCC/C=C1\OC(=O)C2=C1CCC=C2 [Z-Ligustilide]
Reply: 57.6

Ask: Repeat for the following molecule: `C[C@H]1O[C@@H](O[C@H]2CC[C@@]3(C)[C@@H](CC[C@]4(C)[C@@H]3C=C[C@]35OC[C@@]6(CCC(C)(C)C[C@H]63)[C@H](O)C[C@]54C)[C@]2(C)CO)[C@H](O)[C@@H](O[C@@H]2O[C@H](CO)[C@@H](O)[C@H](O)[C@H]2O)[C@H]1O`
Reply: 22.8

----------
Experiment: Pharmacokinetics in ADHD model rats after gavage of JYPs
Assay type: in vivo, SHR rats (ADHD model)
Details: male, SHR, rat, plasma, 2.16 g/kg/day; ADHD model rats, oral JYPs medium dose 2.160 g/kg/d (2nd of 3 values)
ASSAY_ENDPOINT: half-life (h)
Just the number please, in h, no unit attached.

Ask: Which half-life value is on record for `C[C@H]1O[C@@H](O[C@H]2CC[C@@]3(C)[C@@H](CC[C@]4(C)[C@@H]3C=C[C@]35OC[C@@]6(CCC(C)(C)C[C@H]63)[C@H](O)C[C@]54C)[C@]2(C)CO)[C@H](O)[C@@H](O[C@@H]2O[C@H](CO)[C@@H](O)[C@H](O)[C@H]2O)[C@H]1O` ?
Reply: 10.6

Ask: Repeat for the following molecule: `C[C@H]1O[C@@H](O[C@H]2CC[C@@]3(C)[C@@H](CC[C@]4(C)[C@@H]3C=C[C@]35OC[C@@]6(CCC(C)(C)C[C@H]63)[C@@H](O)C[C@]54C)[C@]2(C)CO)[C@H](O)[C@@H](O[C@@H]2O[C@H](CO)[C@@H](O)[C@H](O)[C@H]2O)[C@H]1O`
Reply: 12.2

----------
Experiment: Pharmacokinetics in ADHD model rats after gavage of JYPs
Format: in vivo, SHR rats (ADHD model)
Details: male, SHR, rat, plasma, 1.08 g/kg/day; ADHD model rats, oral JYPs low dose 1.080 g/kg/d (1st of 3 values); read-out: MRT(0-∞)
I'd be grateful if you could share measured MRT inf for these entries.
Hi, when you answer, please include the unit after the number. Thanks!

Ask: Which MRT inf value is on record for CCC/C=C1\OC(=O)C2=C1CCC=C2 [Z-Ligustilide] ?
Reply: 17.9 h

Ask: Repeat for the following compound: C[C@H]1O[C@@H](O[C@H]2CC[C@@]3(C)[C@@H](CC[C@]4(C)[C@@H]3C=C[C@]35OC[C@@]6(CCC(C)(C)C[C@H]63)[C@H](O)C[C@]54C)[C@]2(C)CO)[C@H](O)[C@@H](O[C@@H]2O[C@H](CO)[C@@H](O)[C@H](O)[C@H]2O)[C@H]1O [Saikosaponin D]
Reply: 20.3 h

Ask: Repeat for the following compound: C[C@H]1O[C@@H](O[C@H]2CC[C@@]3(C)[C@@H](CC[C@]4(C)[C@@H]3C=C[C@]35OC[C@@]6(CCC(C)(C)C[C@H]63)[C@@H](O)C[C@]54C)[C@]2(C)CO)[C@H](O)[C@@H](O[C@@H]2O[C@H](CO)[C@@H](O)[C@H](O)[C@H]2O)[C@H]1O [Saikosaponin A]
Reply: 19.4 h

----------
I'd be grateful if you could share measured AUC(0-t) for these entries.
Assay: Pharmacokinetics in ADHD model rats after gavage of JYPs
Type: in vivo, SHR rats (ADHD model)
Details: male, SHR, rat, plasma, 4.32 g/kg/day; ADHD model rats, oral JYPs high dose 4.320 g/kg/d (3rd of 3 values)

Ask: Which AUC(0-t) value is on record for CCC/C=C1\OC(=O)C2=C1CCC=C2 [Z-Ligustilide] ?
Reply: 49.5 ng·h/mL

Ask: Repeat for the following compound: C[C@H]1O[C@@H](O[C@H]2CC[C@@]3(C)[C@@H](CC[C@]4(C)[C@@H]3C=C[C@]35OC[C@@]6(CCC(C)(C)C[C@H]63)[C@@H](O)C[C@]54C)[C@]2(C)CO)[C@H](O)[C@@H](O[C@@H]2O[C@H](CO)[C@@H](O)[C@H](O)[C@H]2O)[C@H]1O [Saikosaponin A]
Reply: 307 ng·h/mL

Ask: Repeat for the following compound: C[C@H]1O[C@@H](O[C@H]2CC[C@@]3(C)[C@@H](CC[C@]4(C)[C@@H]3C=C[C@]35OC[C@@]6(CCC(C)(C)C[C@H]63)[C@H](O)C[C@]54C)[C@]2(C)CO)[C@H](O)[C@@H](O[C@@H]2O[C@H](CO)[C@@H](O)[C@H](O)[C@H]2O)[C@H]1O [Saikosaponin D]
Reply: 156 ng·h/mL

----------
Assay: Pharmacokinetics in ADHD model rats after gavage of JYPs
Assay type: in vivo, SHR rats (ADHD model)
Settings: male, SHR, rat, plasma, 2.16 g/kg/day; ADHD model rats, oral JYPs medium dose 2.160 g/kg/d (2nd of 3 values); read-out: MRT(0-∞)
I'd be grateful if you could share measured MRT inf for these entries.
Just the number please, in h, no unit attached.

Ask: Which MRT inf value is on record for CCC/C=C1\OC(=O)C2=C1CCC=C2 [Z-Ligustilide] ?
Reply: 20

Ask: Repeat for the following molecule: `C[C@H]1O[C@@H](O[C@H]2CC[C@@]3(C)[C@@H](CC[C@]4(C)[C@@H]3C=C[C@]35OC[C@@]6(CCC(C)(C)C[C@H]63)[C@@H](O)C[C@]54C)[C@]2(C)CO)[C@H](O)[C@@H](O[C@@H]2O[C@H](CO)[C@@H](O)[C@H](O)[C@H]2O)[C@H]1O`
Reply: 16.8

Ask: Repeat for the following molecule: `C[C@H]1O[C@@H](O[C@H]2CC[C@@]3(C)[C@@H](CC[C@]4(C)[C@@H]3C=C[C@]35OC[C@@]6(CCC(C)(C)C[C@H]63)[C@H](O)C[C@]54C)[C@]2(C)CO)[C@H](O)[C@@H](O[C@@H]2O[C@H](CO)[C@@H](O)[C@H](O)[C@H]2O)[C@H]1O`
Reply: 14.8

----------
Assay: Pharmacokinetics in control rats after gavage of JYPs
Format: in vivo, Sprague Dawley (SD) rats
Details: male, Sprague-Dawley, rat, plasma, 4.32 g/kg/day, oral JYPs high dose 4.320 g/kg/d (3rd of 3 values), read-out: t1/2 (converted)
I'd be grateful if you could share measured half-life for these entries.
Just the number please, in h, no unit attached.

Ask: Which half-life value is on record for CCC/C=C1\OC(=O)C2=C1CCC=C2 [Z-Ligustilide] ?
Reply: 16.4

Ask: Repeat for the following compound: CCCC=C1OC(=O)C2=C1CCC1C3C=C4C(=O)OC(=CCCC)C4(CC3)C21 (stereo not shown) [Levistilide A]
Reply: 22.1

Ask: Repeat for the following compound: C[C@H]1O[C@@H](O[C@H]2CC[C@@]3(C)[C@@H](CC[C@]4(C)[C@@H]3C=C[C@]35OC[C@@]6(CCC(C)(C)C[C@H]63)[C@@H](O)C[C@]54C)[C@]2(C)CO)[C@H](O)[C@@H](O[C@@H]2O[C@H](CO)[C@@H](O)[C@H](O)[C@H]2O)[C@H]1O [Saikosaponin A]
Reply: 7.8

Ask: Repeat for the following compound: C[C@H]1O[C@@H](O[C@H]2CC[C@@]3(C)[C@@H](CC[C@]4(C)[C@@H]3C=C[C@]35OC[C@@]6(CCC(C)(C)C[C@H]63)[C@H](O)C[C@]54C)[C@]2(C)CO)[C@H](O)[C@@H](O[C@@H]2O[C@H](CO)[C@@H](O)[C@H](O)[C@H]2O)[C@H]1O [Saikosaponin D]
Reply: 13.7

----------
I'd be grateful if you could share measured half-life for these entries.
Experiment: Pharmacokinetics in control rats after gavage of JYPs
Type: in vivo, Sprague Dawley (SD) rats
Conditions: male, Sprague-Dawley, rat, plasma, 1.08 g/kg/day, oral JYPs low dose 1.080 g/kg/d (1st of 3 values), read-out: t1/2 (converted)

Ask: Which half-life value is on record for C[C@H]1O[C@@H](O[C@H]2CC[C@@]3(C)[C@@H](CC[C@]4(C)[C@@H]3C=C[C@]35OC[C@@]6(CCC(C)(C)C[C@H]63)[C@H](O)C[C@]54C)[C@]2(C)CO)[C@H](O)[C@@H](O[C@@H]2O[C@H](CO)[C@@H](O)[C@H](O)[C@H]2O)[C@H]1O [Saikosaponin D] ?
Reply: 11.4 h

Ask: Repeat for the following compound: CCC/C=C1\OC(=O)C2=C1CCC=C2 [Z-Ligustilide]
Reply: 15.4 h

Ask: Repeat for the following compound: C[C@H]1O[C@@H](O[C@H]2CC[C@@]3(C)[C@@H](CC[C@]4(C)[C@@H]3C=C[C@]35OC[C@@]6(CCC(C)(C)C[C@H]63)[C@@H](O)C[C@]54C)[C@]2(C)CO)[C@H](O)[C@@H](O[C@@H]2O[C@H](CO)[C@@H](O)[C@H](O)[C@H]2O)[C@H]1O [Saikosaponin A]
Reply: 7.52 h

Ask: Repeat for the following compound: CCCC=C1OC(=O)C2=C1CCC1C3C=C4C(=O)OC(=CCCC)C4(CC3)C21 (stereo not shown) [Levistilide A]
Reply: 14.4 h
